- assayRemarks: P. aeruginosa biofilm formation inhibitors, primary screen, PAO1 strain, BacTiter-Glo luminescence, LB-PBS (AID 1144)
- conditionLabel: 12 h, higher = more signal
Use 0.4 as the dividing line for z-score, with the line itself on the true (1) side and lower values as false (0).

The examples below pair each entry with its known result.
1. C=CCOC(=O)[C@H]1[C@@H]2C(=O)O[C@@H](c3ccccc3)[C@@H](c3ccccc3)N2[C@@H](c2ccc(OCCOC(=O)[C@H]3C[C@H]4C(=O)N[C@@H](Cc5ccccc5)C(=O)N4[C@H]3c3cccc(OCCO)c3)cc2)[C@]12C(=O)Nc1ccc(I)cc12 ... false (0)
2. COc1ccc(C#Cc2ccc3c(c2)[C@]2(C(=O)N3)[C@H](C(=O)N3CCc4cc(OC)c(OC)cc4C3)[C@H]3C(=O)O[C@H](c4ccccc4)[C@H](c4ccccc4)N3[C@@H]2c2ccc(O)cc2)cc1 ... false (0)
3. C=CCOC(=O)[C@@H]1[C@H]2C(=O)O[C@H](c3ccccc3)[C@H](c3ccccc3)N2[C@H](c2ccc(OCCOC(=O)[C@H]3C[C@H]4C(=O)N[C@@H](CCCCN(C)C)C(=O)N4[C@H]3c3cccc(OCCO)c3)cc2)[C@@]12C(=O)Nc1ccc(I)cc12 ... false (0)

Note: attention shifts to another entry.
[in] Hi, just wondering whether `CC(C)(C)OC(=O)CC[C@]1(C(=O)N2CCOCC2)N=C(c2ccc(OCCCO)cc2)O[C@H]1c1ccccc1` shows z-score of 0.4 or higher.
[out] true (1)

* * *

Answer each item with its documented z-score.
- assayRemarks: HepG2 cell viability effects, profiling panel, calcein-AM fluorescence, 48 h, basal (AID 1164); also: test concentration not given here
- conditionLabel: higher = more signal
Numbers only.

Worked cases, answers included:
1) C[C@H]1C2=C3C(CC[C@H]4C(OCc5ccc(F)cc5C(F)(F)F)OC[C@](C)([C@@H]34)N(C(=O)OC(C)(C)C)C2)C(CO)C1CO (stereo not given in full) ... -0.907
2) C[C@]1(C(=O)NC2CC2)c2ccccc2C(=O)N(Cc2ccc(OC(F)(F)F)cc2)[C@H]1c1ccc(CO)cc1 ... 0.415
3) CCOC(=O)C[C@H]1[C@H](OC(=O)c2ccc(-c3ccccc3)cc2)[C@@H](NC(=O)c2ccc3ccccc3n2)c2cc(OCCCO)ccc2N1C(=O)c1ccccc1 ... -0.677

Batch request: z-score per item, same order as input.
1. COCCOC(=O)N1C(=O)[C@@]2(c3ccccc31)[C@H](C(=O)N1CCN(c3ncccn3)CC1)[C@H]1C(=O)O[C@H](c3ccccc3)[C@H](c3ccccc3)N1[C@@H]2c1ccc(OCCO)cc1
2. O=C(CS)NCCCCCCNC(=O)[C@H]1C[C@H]2C(=O)N[C@@H](Cc3ccccc3)C(=O)N2[C@H]1c1cccc(OCCO)c1
3. CCCC[C@@H]1C[C@H]1[C@@H](NC(=O)c1ccccc1)c1ccc(Cl)cc1
4. CN1C(=O)[C@@]2(CCS(=O)(=O)c3ccccc3)N=C(c3ccc(OCCCO)cc3)O[C@H]2c2ccccc21

[out]
1.39
0.77
-1.17
-0.0319

Batch request: z-score per item, same order as input.
1. CN(C)CCCNC(=O)[C@@]1(C)c2ccccc2C(=O)N(Cc2cc(C(F)(F)F)cc(C(F)(F)F)c2)[C@H]1c1ccc(CO)cc1
2. CN(C)C(=O)[C@@]1(Cc2ccccc2N=[N+]=[N-])COC(c2ccc(OCCCO)cc2)=N1

[out]
[0.221, 1.32]

Batch request: z-score per item, same order as input.
1. CN(C)CCCN1C(=O)[C@@]2(c3ccc([N+](=O)[O-])cc3)CC(=O)N(CC34CC5CC(CC(C5)C3)C4)[C@@H]2c2ccc(CO)cc21
2. CCCC[C@@H]1C[C@H]1[C@@H](NC(=O)c1cccnc1)c1ccc(-c2ccccc2)cc1

[out]
1. 0.28
2. -0.886

Batch request: z-score per item, same order as input.
1. C=C(/C=C/CNS(=O)(=O)c1ccc(C)cc1)[C@H](O)[C@H]1CCCN1S(=O)(=O)c1ccccc1[N+](=O)[O-]
2. C=CC[C@@]12N=C(c3ccc(OCCCO)cc3)O[C@@H]1c1ccccc1N(CCS(=O)(=O)c1ccccc1)C2=O
3. C=CCC(OC(C)=O)[C@@H]1[C@@H](N(Cc2cc3ccccc3o2)C(=O)c2ccc(C)cc2)c2cc(OCCCO)ccc2N1C(=O)Cc1ccc2ccccc2c1 (stereo not given in full)
4. O=C1OCCC=C[C@H]2OC34C=CCN(c5ccc(Cl)cc5)C(=O)[C@H]3N(CCCCCO)C(=O)[C@@H]4C12 (stereo not given in full)
5. CC(C)OC(=O)CC(=O)CC(O)c1cccc(C#N)c1 (stereo not given)
6. CCOC(=O)C1=CC[C@@H](c2ccccc2C(F)(F)F)N(S(=O)(=O)c2ccc(C)cc2)C1

[out]
[-0.291, 1.05, 1.18, 1.11, 0.886, 1.31]

* * *

Answer each item with its documented z-score.
- assayRemarks: modulators of HCV replicon luciferase signal, primary screen, HCV replication inhibitor project, Huh7 cells, luciferase reporter (AID 1109);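 also: huh7 hepatoma cells harbouring a luciferase neomycin HCV replicon reporter; luciferase luminescence as measure of HCV replicon replication; test concentration not given here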
- conditionLabel: 48 h, higher = more signal
One number for each entry.

Worked cases, answers included:
1. C=CCN1C(=O)[C@]2(CC=C)N=C(c3ccc(OCCCO)cc3)O[C@@H]2c2ccccc21 ... -2.63
2. NCCCCCCNC(=O)[C@H]1C[C@H]2C(=O)N[C@@H](Cc3ccccc3)C(=O)N2[C@H]1c1ccc(O)cc1 ... 0.914
3. C[C@]1(C(=O)NC2CC2)c2ccccc2C(=O)N(Cc2ccc(OC(F)(F)F)cc2)[C@H]1c1ccc(CO)cc1 ... -0.144

Batch request: z-score per item, same order as input.
1. COc1ccc(C#Cc2ccc3c(c2)[C@]2(C(=O)N3)[C@H](C(=O)N3CCc4cc(OC)c(OC)cc4C3)[C@H]3C(=O)O[C@H](c4ccccc4)[C@H](c4ccccc4)N3[C@@H]2c2ccc(O)cc2)cc1
2. CC(C)C[C@@H]1NC(=O)[C@H]2C[C@@H](C(=O)NCCCCCC[N+](C)(C)C)[C@@H](c3cccc(OCCO)c3)N2C1=O
3. CCOC(=O)C1=CC[C@@H](c2ccccc2C(F)(F)F)N(S(=O)(=O)c2ccc(C)cc2)C1
4. COCCOC(=O)N1C(=O)[C@@]2(c3ccccc31)[C@H](C(=O)N1CCN(c3ncccn3)CC1)[C@H]1C(=O)O[C@H](c3ccccc3)[C@H](c3ccccc3)N1[C@@H]2c1ccc(OCCO)cc1

[out]
[-1.21, 1.79, -2.98, -1.42]

* * *

- assayRemarks: binders of probe aFGF2 on microarray, primary screen, stem cell growth factor project, biochemical, small-molecule microarray, fluorescence 635/667 (AID 1067);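 also: measures binding of biotinylated aFGF2 protein to printed compounds on slides; z-score merges feature fluorescence and signal-to-noise across triplicate slides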
- conditionLabel: higher = more signal
Use 0.04 as the dividing line for composite z-score, with the line itself on the y side and lower values as n.

The examples below pair each entry with its known result.
1. COCCCNC(=O)[C@@H]1c2ccccc2C(=O)N(Cc2ccccc2C(F)(F)F)[C@H]1c1ccc(CO)cc1 ... n
2. C=C(CCCC)/C(=C/C[C@@H](OC(=O)c1ccncc1)c1cccc(OCCO)c1)c1cnc2ccccc2c1 ... y
3. O=C1OCCC=C[C@H]2OC34C=CCN(c5ccc(Cl)cc5)C(=O)[C@H]3N(CCCCCO)C(=O)[C@@H]4C12 (stereo partly drawn) ... n
4. COc1cc2c(cc1OC)CN(C(=O)[C@@H]1[C@H]3C(=O)O[C@H](c4ccccc4)[C@H](c4ccccc4)N3[C@H](c3ccccc3OCCO)[C@@]13C(=O)Nc1ccc(C#CC4(O)CCCCCC4)cc13)CC2 ... n
5. COCCOC(=O)N1C(=O)[C@@]2(c3cc(C#CC4=CCCCC4)ccc31)[C@H](C(=O)N1CCN(c3ncccn3)CC1)[C@H]1C(=O)O[C@H](c3ccccc3)[C@H](c3ccccc3)N1[C@@H]2c1ccc(O)cc1 ... y

Note: attention shifts to another entry.
[in] Hi, just wondering whether COc1ccc(C(O)C2C=CC3C(=O)N(c4ccccc4)C(=O)C3N2Nc2ccc(C#N)cc2)c2ccccc12 (stereo not drawn) shows composite z-score of 0.04 or higher.
[out] y

* * *

Answer each item with its documented composite z-score.
- targetOfAssay: Torsin-1A (Homo sapiens) (UniProt O14656)
- Sequence (O14656 whole entry, looked up): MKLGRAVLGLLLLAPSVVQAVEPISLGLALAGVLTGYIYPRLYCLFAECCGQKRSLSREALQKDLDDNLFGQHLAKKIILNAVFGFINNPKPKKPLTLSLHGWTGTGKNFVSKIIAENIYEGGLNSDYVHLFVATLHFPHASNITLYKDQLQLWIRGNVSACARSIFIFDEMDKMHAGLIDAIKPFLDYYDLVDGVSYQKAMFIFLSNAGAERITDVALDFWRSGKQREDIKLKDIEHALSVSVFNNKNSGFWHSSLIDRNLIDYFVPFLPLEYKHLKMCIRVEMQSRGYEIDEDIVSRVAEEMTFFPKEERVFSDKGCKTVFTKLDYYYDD
- assayRemarks: small-molecule binders of mutant TOR1A in lysate, primary screen, cell lysate, small-molecule microarray, COS7 lysate, 635/667 nm fluorescence (AID 1150);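 also: score pools 667 nm emission and signal to noise measuring lysate protein binding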
- conditionLabel: COS7 hTOR1A mutant lysate, 635 nm fluorescence, higher = more signal
Answers are plain numbers.

1) O=C1c2ccccc2[C@@]2(Cc3ccccc3N(C3CC3)C2=O)[C@H](c2ccc(CO)cc2)N1C1CCCCC1 ... -0.928
2) C=CCC(OC(C)=O)[C@@H]1[C@@H](N(Cc2cc3ccccc3o2)C(=O)Cc2ccc(F)cc2)c2cc(OCCCO)ccc2N1C(=O)c1ccc2ccccc2n1 (stereo not given in full) ... -0.226

Batch request: composite z-score per item, same order as input.
1. COc1cc2c(cc1OC)CN(C(=O)[C@H]1[C@@H]3C(=O)O[C@@H](c4ccccc4)[C@@H](c4ccccc4)N3[C@@H](c3ccc(OCCO)cc3)[C@]13C(=O)Nc1ccc(C#CCCO)cc13)CC2
2. CC(C)(C)OC(=O)CC[C@]1(C(=O)O)N=C(c2ccc(OCCCO)cc2)O[C@H]1c1ccccc1
3. CN1C(=O)C2C=CC(C(O)Cc3ccccc3)N(N(c3ccccc3)c3ccccc3)C2C1=O (stereo not given)
4. COCCCNC(=O)[C@@]1(Sc2ccc(C)cc2)CC(=O)N(C2Cc3ccccc3C2)[C@@H]1c1ccc(CO)cc1I
5. Cc1ccc(S[C@]2(C(=O)NCc3ccccc3)CC(=O)N(C(C)C)[C@@H]2c2ccc(CO)cc2I)cc1
6. CN(C)C(=O)[C@]1(CCC(=O)OC(C)(C)C)N=C(c2ccc(OCCCO)cc2)O[C@@H]1c1ccccc1
7. O=C1C[C@]2(c3ccc([N+](=O)[O-])cc3)C(=O)N(Cc3ccccc3)c3cc(CO)ccc3[C@H]2N1CC12CC3CC(CC(C3)C1)C2
8. CC(=O)N1Cc2ccccc2C[C@]2(N=C(c3ccc(OCCCO)cc3)O[C@@H]2c2ccccc2)C1=O

[out]
0.764
0.113
0.25
-1.29
-0.609
2.2
0.263
0.297

Batch request: composite z-score per item, same order as input.
1. CC=CC(O)C1C=CC2C(=O)N(c3ccccc3)C(=O)C2N1Nc1ccccc1 (stereo not given)
2. COC(=O)[C@@]1(Cc2ccc(OC)cc2)[C@H]2c3cc(C(=O)N(C)C)n(Cc4nc5ccccc5[nH]4)c3C[C@H]2CN1C(=O)c1ccccc1
3. C=CC[C@]12N=C(c3ccc(OCCCO)cc3)O[C@H]1c1ccccc1N(C)C2=O

[out]
1. 0.285
2. 0.432
3. 0.468
